These entries and their values trace back to paper PMC7712541.

- Experiment notes: Cytotoxicity, MTT method
- Applied conditions: human, KB 3.1 endocervical adenocarcinoma cells
pIC50: −log10 of the molar value.
Class true: pIC50 at least 6. Class false: pIC50 below 6.

{"columns": ["Chemical string", "Assigned label"],
 "data": [
  ["CCCC(=O)O[C@H]1c2cc(C)cc(O)c2C(=O)C2=C(O)[C@H]3C=C[C@]21Cc1cc(O)c2c(c13)O[C@@](C(=O)OC)([C@@H](O)CCC(=O)O)CC2=O", "false"],
  ["CCCC(=O)O[C@H]1c2cc(C)cc(O)c2C(=O)C2=C(O)[C@H]3C=C[C@]21Cc1cc(O)c2c(c13)O[C@]1(C(=O)OC)C(=C(O)CC[C@@H]1O)C2=O", "true"],
  ["CCCC(=O)O[C@H]1c2cc(C)cc(O)c2C(=O)C2=C(O)[C@H]3C=C[C@]21Cc1cc(O)c2c(c13)O[C@@]1(C(=O)OC)C(=C(O)CC[C@@H]1O)C2=O", "true"],
  ["CCCC(=O)O[C@H]1c2cc(C)cc(O)c2C(=O)C2=C(O)[C@H]3C=C[C@]21Cc1cc(O)c2c(c13)O[C@@](C(=O)OC)([C@@H]1CCC(=O)O1)CC2=O", "false"]
]}

---

- Tested on: Mucor hiemalis
Attribute: MIC

{"columns": ["Chemical string", "Quantity unit", "MIC"],
 "data": [
  ["CCCC(=O)O[C@H]1c2cc(C)cc(O)c2C(=O)C2=C(O)[C@H]3C=C[C@]21Cc1cc(O)c2c(c13)O[C@@]1(C(=O)OC)C(=C(O)[C@@H](O)C[C@@H]1O)C2=O", "µg/mL", 66.7],
  ["CCCC(=O)O[C@H]1c2cc(C)cc(O)c2C(=O)C2=C(O)[C@H]3C=C[C@]21Cc1cc2c(c(O)c13)C(=O)C1=C(O)CC[C@H](O)[C@@]1(C(=O)OC)O2", "µg/mL", 66.7],
  ["CCCC(=O)O[C@H]1c2cc(C)cc(O)c2C(=O)C2=C(O)[C@H]3C=C[C@]21Cc1cc(O)c2c(c13)O[C@]1(C(=O)OC)C(=C(O)CC[C@@H]1O)C2=O", "µg/mL", 2.1]
]}

---

- Test system: Schizosaccharomyces pombe
- Experiment notes: MIC, antifungal test
- Assay type: cell-based
- Parameters: key: –: no inhibition observed under test conditions
- Description: […]

{"columns": ["Compound", "Minimum inhibitory concentration (MIC)"],
 "data": [
  ["CCCC(=O)O[C@H]1c2cc(C)cc(O)c2C(=O)C2=C(O)[C@H]3C=C[C@]21Cc1cc2c(c(O)c13)C(=O)C1=C(O)CC[C@H](O)[C@@]1(C(=O)OC)O2", "–"],
  ["CCCC(=O)O[C@H]1c2cc(C)cc(O)c2C(=O)C2=C(O)[C@H]3C=C[C@]21Cc1cc(O)c2c(c13)O[C@@](C(=O)OC)([C@@H]1CCC(=O)O1)CC2=O", "–"],
  ["C[C@@H]1[C@H](O)[C@@H](C)/C=C/C=C/CC/C=C/C=C/C=C/C=C/C(O[C@H]2O[C@H](C)[C@@H](O)[C@H](N)[C@@H]2O)CC2O[C@](O)(CC(O)C(O)CCC(O)CC(O)CC(O)CC(=O)O[C@H]1C)CC(O)C2C(=O)O (stereo partly shown) [nystatin, reference compound]", "33.30 ^1 µg/mL"],
  ["COC(=O)[C@]12Oc3c(c(O)cc4c3[C@@H]3C=C[C@]5(C4)C(=C(O)c4c(O)cc(C)cc4[C@@H]5O)C3=O)C(=O)C1=C(O)CC[C@@H]2O", "–"]
]}
